The reported measurements were obtained from the supplement of paper PMC10307832.

Recorded relative viability values for a group of compounds are listed next.
- Test system: SK-LU-1
- experiment-summary: relative viability (nuclei count vs DMSO), 5 days (fraction); higher = more cells survive
- conditions: first compound 0.2 µM
Give the value as a plain number.

A selection of reference data follows.
[[record]]
compound = "CN1CCN(CCOc2cc(OC3CCOCC3)c3c(Nc4c(Cl)ccc5c4OCO5)ncnc3c2)CC1 [Saracatinib] + CS(=O)(=O)CCNCc1ccc(-c2ccc3ncnc(Nc4ccc(OCc5cccc(F)c5)c(Cl)c4)c3c2)o1 [Lapatinib] (partner 2 µM)"
value_reported = 0.572

[[record]]
compound = "CN1CCN(CCOc2cc(OC3CCOCC3)c3c(Nc4c(Cl)ccc5c4OCO5)ncnc3c2)CC1 [Saracatinib] + O=C(c1cc(Cc2n[nH]c(=O)c3ccccc23)ccc1F)N1CCN(C(=O)C2CC2)CC1 [Olaparib] (partner 8 µM)"
value_reported = 0.359

[[record]]
compound = "CN1CCN(CCOc2cc(OC3CCOCC3)c3c(Nc4c(Cl)ccc5c4OCO5)ncnc3c2)CC1 [Saracatinib] + CC(=O)c1c(C)c2cnc(Nc3ccc(N4CCNCC4)cn3)nc2n(C2CCCC2)c1=O [Palbociclib] (partner 0.5 µM)"
value_reported = 0.297


Record lookup: for SK-LU-1, what relative viability belongs to CCNC(=O)c1noc(-c2cc(C(C)C)c(O)cc2O)c1-c1ccc(CN2CCOCC2)cc1 [Luminespib] + C[C@]1(O)C[C@@H](c2nc(-c3ccc4ccc(-c5ccccc5)nc4c3)c3c(N)nccn32)C1 [Linsitinib] (partner 1 µM) ?
0.178

Record lookup: for SK-LU-1, what relative viability belongs to CN1CCN(CCOc2cc(OC3CCOCC3)c3c(Nc4c(Cl)ccc5c4OCO5)ncnc3c2)CC1 [Saracatinib] + C[C@]1(O)C[C@@H](c2nc(-c3ccc4ccc(-c5ccccc5)nc4c3)c3c(N)nccn32)C1 [Linsitinib] (partner 1 µM) ?
0.752

* * *

- Tested on: NCI-H2023
- experiment-summary: relative viability (nuclei count vs DMSO), 5 days (fraction); higher = more cells survive
- conditions: first compound 0.006325 µM
Could you mark each record 1.0 if its relative viability falls strictly under 0.6, and 0.0 if it equals or exceeds it?

Some solved cases for reference:
[[record]]
compound = "CCNC(=O)c1noc(-c2cc(C(C)C)c(O)cc2O)c1-c1ccc(CN2CCOCC2)cc1 [Luminespib] + C[C@]1(O)C[C@@H](c2nc(-c3ccc4ccc(-c5ccccc5)nc4c3)c3c(N)nccn32)C1 [Linsitinib] (partner 1 µM)"
target_of_assay = "NCI-H2023"
category_label = 1.0

[[record]]
compound = "CCNC(=O)c1noc(-c2cc(C(C)C)c(O)cc2O)c1-c1ccc(CN2CCOCC2)cc1 [Luminespib] + O=C(c1cc(Cc2n[nH]c(=O)c3ccccc23)ccc1F)N1CCN(C(=O)C2CC2)CC1 [Olaparib] (partner 8 µM)"
target_of_assay = "NCI-H2023"
category_label = 1.0

[[record]]
compound = "CCNC(=O)c1noc(-c2cc(C(C)C)c(O)cc2O)c1-c1ccc(CN2CCOCC2)cc1 [Luminespib] + CS(=O)(=O)CCNCc1ccc(-c2ccc3ncnc(Nc4ccc(OCc5cccc(F)c5)c(Cl)c4)c3c2)o1 [Lapatinib] (partner 2 µM)"
target_of_assay = "NCI-H2023"
category_label = 0.0

[[record]]
compound = "CCNC(=O)c1noc(-c2cc(C(C)C)c(O)cc2O)c1-c1ccc(CN2CCOCC2)cc1 [Luminespib] + Nc1nc2[nH]cc(CCc3ccc(C(=O)N[C@@H](CCC(=O)O)C(=O)O)cc3)c2c(=O)[nH]1 [Pemetrexed] (partner 0.2 µM)"
target_of_assay = "NCI-H2023"
category_label = 1.0


is_below(relative viability, 0.6) for CCNC(=O)c1noc(-c2cc(C(C)C)c(O)cc2O)c1-c1ccc(CN2CCOCC2)cc1 [Luminespib] + COc1cccc2cc(-c3nc([C@H]4CC[C@H](C(=O)O)CC4)n4ncnc(N)c34)[nH]c12 [OSI-027] (partner 0.5 µM) ?
1.0
